Data origin: patent US20250236642A1

Experimental system: HLA-A*02:06 molecule
Assay text: flow cytometry, RA2.6 cells
Could you please report measured -log Kd value for the items listed next?
Kindly provide the number alone.

Q) Find the recorded -log Kd value belonging to LVITRKSFI [peptide of SEQ ID NO: 30] and report it.
A) -3.61

Q) Find the recorded -log Kd value belonging to LLLFSAAAL [peptide of SEQ ID NO: 1] and report it.
A) -4.96

Q) Find the recorded -log Kd value belonging to LIITRKSFI [peptide of SEQ ID NO: 29] and report it.
A) -3.64
